Provenance of the data: BigSolDB 2.1

Conditions: in water, 298.15 K
READOUT TYPE: solubility (mole fraction)
Lab note: jot down the number only; don't add units.

[Q] Given `COc1cc(C=O)ccc1O` , state its recorded solubility (mole fraction).
[A] 0.00117

[Q] Same again, this time with `COc1cc(C(=O)O)cc(OC)c1O`
[A] 0.000522

[Q] Same again, this time with `O=C(O)c1cc(O)c(O)c(O)c1`
[A] 0.00122

[Q] Same again, this time with `O=C(O)c1ccc(O)c(O)c1`
[A] 0.00223

====

Conditions: in water, 318.15 K
For each record, write down the corresponding solubility (mole fraction).

[Q] Given `COc1cc(C(=O)O)cc(OC)c1O` , state its recorded solubility (mole fraction).
[A] 0.00105

[Q] Same again, this time with `O=C(O)c1ccc(O)c(O)c1`
[A] 0.00256

[Q] Same again, this time with `O=C(O)c1cc(O)c(O)c(O)c1`
[A] 0.00143

[Q] Same again, this time with `COc1cc(C=O)ccc1O`
[A] 0.00239

====

Details: in water, 303.15 K
For each record, write down the corresponding solubility (mole fraction).
Lab note: jot down the number only; don't add units.

[Q] Given `O=C(O)c1cc(O)c(O)c(O)c1` , state its recorded solubility (mole fraction).
[A] 0.00128

[Q] Same again, this time with `COc1cc(C(=O)O)cc(OC)c1O`
[A] 0.000646

[Q] Same again, this time with `COc1cc(C=O)ccc1O`
[A] 0.00151

[Q] Same again, this time with `O=C(O)c1ccc(O)c(O)c1`
[A] 0.00229

====

For each record, write down the corresponding solubility (mole fraction).
Details: in water, 293.15 K
Lab note: jot down the number only; don't add units.

[Q] Given `COc1cc(C(=O)O)cc(OC)c1O` , state its recorded solubility (mole fraction).
[A] 0.000376

[Q] Same again, this time with `O=C(O)c1cc(O)c(O)c(O)c1`
[A] 0.00117

[Q] Same again, this time with `O=C(O)c1ccc(O)c(O)c1`
[A] 0.00212

[Q] Same again, this time with `COc1cc(C=O)ccc1O`
[A] 0.000989

====

For each record, write down the corresponding solubility (mole fraction).
Settings: in water, 308.15 K
Lab note: jot down the number only; don't add units.

[Q] Given `COc1cc(C(=O)O)cc(OC)c1O` , state its recorded solubility (mole fraction).
[A] 0.000794

[Q] Same again, this time with `O=C(O)c1cc(O)c(O)c(O)c1`
[A] 0.00131

[Q] Same again, this time with `COc1cc(C=O)ccc1O`
[A] 0.00182

[Q] Same again, this time with `O=C(O)c1ccc(O)c(O)c1`
[A] 0.00238

====

Conditions: in water, 313.15 K
For each record, write down the corresponding solubility (mole fraction).
Lab note: jot down the number only; don't add units.

[Q] Given `COc1cc(C=O)ccc1O` , state its recorded solubility (mole fraction).
[A] 0.0021

[Q] Same again, this time with `O=C(O)c1cc(O)c(O)c(O)c1`
[A] 0.00138

[Q] Same again, this time with `O=C(O)c1ccc(O)c(O)c1`
[A] 0.00244

[Q] Same again, this time with `COc1cc(C(=O)O)cc(OC)c1O`
[A] 0.000915
